Reference source for all entries: ChEMBL document CHEMBL4513216

- System: Plasmodium berghei
- Protocol description: Screen against P. berghei liver stage (PbLuc), transformed with Luciferase, at 2uM
- Format: functional, HepG2
- Measurement parameters: tested at 2 uM
The whole screen tested about 68,000 compounds, of which about 2,700 (4%) showed an effect of 50% or more. Shown is part of a subset that was picked to be rich in strong results.
Readout kind: INHIBITION (%)

molecule=CCOc1ncccc1CNC(=O)c1cc(C)on1 output_unit=% observed=22.75
molecule=COC(=O)c1ccc(C(=O)NCc2ccco2)nc1 output_unit=% observed=-44.93
molecule=c1ccc(CN2Cc3[nH]nc(COc4cccnc4)c3C2)nc1 output_unit=% observed=18.6
molecule="Cn1cc(CN(CC2(O)CCNC2)C2CCCCC2)cn1 (configuration not stated)" output_unit=% observed=60.64
molecule=O=C(CCn1cccn1)NS(=O)(=O)N1CCCc2ccccc21 output_unit=% observed=-1.45
molecule=O=C(CC1CC1)N[C@@H]1CN(Cc2ccco2)C[C@@H]2CCCO[C@@H]21 output_unit=% observed=52.55
molecule="COc1cccc(N2CCN(C(=O)C(C)Oc3ccccc3)CC2=O)c1 (configuration not stated)" output_unit=% observed=24.28
molecule="OC1(CN2CCC(Oc3cccnc3)CC2)CNCCOC1 (configuration not stated)" output_unit=% observed=3.58
molecule="CS(=O)(=O)NCC1CCCN(c2ccc(C#N)cn2)C1 (configuration not stated)" output_unit=% observed=-0.3
molecule=O=C(c1c[nH]c(=O)cn1)N1C[C@H]2CC[C@@H](C1)N(Cc1ccccc1)C2 output_unit=% observed=24.51
molecule=Cc1nsc(C(=O)NCCc2cccs2)n1 output_unit=% observed=55.25
molecule=Cc1nsc(C(=O)NCCc2ccccc2)n1 output_unit=% observed=-7.16
molecule=O=C(O)c1cc(-c2cccs2)nc2c(Br)cnn12 output_unit=% observed=-11.83
molecule=CN(C)S(=O)(=O)N1CC[C@]2(C[C@H](OCc3ccncc3)CO2)C1 output_unit=% observed=9.65
molecule="Cn1ncc2c1NC(=O)CC2c1ccc(O)cc1 (configuration not stated)" output_unit=% observed=16.01
molecule="CCC1c2ccsc2CCN1C(=O)NCc1cccnc1OC (configuration not stated)" output_unit=% observed=66.27
molecule="CC(O)CNC(=O)NCc1cccnc1OC1CCCC1 (configuration not stated)" output_unit=% observed=59.73
molecule="CCOCC1CN(C(=O)c2cnoc2C)Cc2cn(C)nc21 (configuration not stated)" output_unit=% observed=-10.98
molecule="Cc1ncsc1CCN(C)C(=O)C(c1cccnc1)N1CCOCC1 (configuration not stated)" output_unit=% observed=-13.13
molecule=Cc1nsc(C(=O)NCCc2ccc(F)cc2)n1 output_unit=% observed=-0.59
molecule=COC(=O)c1cccc(C(=O)NCc2ccco2)n1 output_unit=% observed=-15.05
molecule="CC(C)CC(NC(=O)c1cccs1)c1nc2cccnc2n1C (configuration not stated)" output_unit=% observed=-19.86
molecule=COCCN1CCC(c2nc3cc(C)ccc3[nH]2)CC1 output_unit=% observed=8.33
molecule="COc1ccsc1C(=O)N1CCCC1c1c(C)nn(C)c1OC (configuration not stated)" output_unit=% observed=-11.31
molecule=Cc1cc(C(=O)N2CCN(S(C)(=O)=O)[C@@H](C)C2)c(F)cc1F output_unit=% observed=1.27
molecule="Cc1cccc(Nc2ccc(C3CCCCN3)cn2)n1 (configuration not stated)" output_unit=% observed=30.53
molecule="CSCC(=O)N1CCCC1c1noc(C2CC2)n1 (configuration not stated)" output_unit=% observed=27.44
molecule="Cc1cc(CN(C)C(=O)C(c2cccnc2)N2CCOCC2)n[nH]1 (configuration not stated)" output_unit=% observed=39.92
molecule="Cc1nc2ccccc2nc1CN1CCCCC1Cn1cncn1 (configuration not stated)" output_unit=% observed=12.74
molecule=CN(Cc1ccco1)[C@@H]1CN(Cc2ccncc2)C[C@@H]2CCCO[C@@H]21 output_unit=% observed=60.93
molecule=Cc1ccc(CNc2cnn(CC(F)F)c2)cc1C output_unit=% observed=55.43
molecule=Cc1ccc2[nH]c(C3CCN(C)CC3)nc2c1 output_unit=% observed=-5.34
molecule=Cc1cccc2nc(C(=O)N3CCCC[C@]4(C)NC(=O)CCC[C@H]34)cn12 output_unit=% observed=29.06
molecule="CCN1C(=O)C(c2ccccc2)CC12CCN(CCO)CC2 (configuration not stated)" output_unit=% observed=21.06
molecule=COCCNC(=O)Cn1cc2c(n1)c(C)nn2C(C)C output_unit=% observed=-28.32
molecule=COc1cc(CNc2cnn(CC(F)F)c2)ccc1O output_unit=% observed=19.18
molecule=COc1ccc(C(=O)NCc2ccco2)nn1 output_unit=% observed=65.1
molecule=CSc1ccc(NCC(=O)NC(=O)NCC(F)(F)F)cc1F output_unit=% observed=18.63
molecule="CC(Cn1cccn1)NC(=O)NCc1cccnc1OC1CCCC1 (configuration not stated)" output_unit=% observed=39.32
molecule=CC1CCN(C(=O)Cn2cc(I)cn2)CC1 output_unit=% observed=66.74
molecule="Cc1cccc2nc(CN3CCCC3Cn3cncn3)cn12 (configuration not stated)" output_unit=% observed=78.28
molecule=Cc1cccc(C(=O)N2CCCC[C@]3(C)NC(=O)CCC[C@H]23)n1 output_unit=% observed=49.48
